molecular target: Estrogen receptor (Homo sapiens); experiment: Binding affinity for human estrogen receptor alpha after 3 hr at 0C
Quantity name: Activity (%)

Solved cases below.
>>> recorded_value("O=[N+]([O-])c1cc(CO)cc([N+](=O)[O-])c1-c1ccc(O)cc1")
24
>>> recorded_value("OCc1cc(Br)c(-c2ccc(O)cc2)c(Br)c1")
425

P = OCc1ccc(-c2ccc(O)cc2)c(C(F)(F)F)c1
Q = OCc1cc(Cl)c(-c2ccc(O)cc2)c(Cl)c1
Input: Which item exceeds the other in Activity, P or Q ? Answer by stating the label of the chosen item.
Output: Q

###

molecular target: Estrogen receptor (Homo sapiens) (UniProt P03372); test: Receptor binding affinity (RBA) to human recombinant estrogen receptor alpha (REH) after 24 hours at 0 degree Centigrade
Sequence (P03372 whole entry): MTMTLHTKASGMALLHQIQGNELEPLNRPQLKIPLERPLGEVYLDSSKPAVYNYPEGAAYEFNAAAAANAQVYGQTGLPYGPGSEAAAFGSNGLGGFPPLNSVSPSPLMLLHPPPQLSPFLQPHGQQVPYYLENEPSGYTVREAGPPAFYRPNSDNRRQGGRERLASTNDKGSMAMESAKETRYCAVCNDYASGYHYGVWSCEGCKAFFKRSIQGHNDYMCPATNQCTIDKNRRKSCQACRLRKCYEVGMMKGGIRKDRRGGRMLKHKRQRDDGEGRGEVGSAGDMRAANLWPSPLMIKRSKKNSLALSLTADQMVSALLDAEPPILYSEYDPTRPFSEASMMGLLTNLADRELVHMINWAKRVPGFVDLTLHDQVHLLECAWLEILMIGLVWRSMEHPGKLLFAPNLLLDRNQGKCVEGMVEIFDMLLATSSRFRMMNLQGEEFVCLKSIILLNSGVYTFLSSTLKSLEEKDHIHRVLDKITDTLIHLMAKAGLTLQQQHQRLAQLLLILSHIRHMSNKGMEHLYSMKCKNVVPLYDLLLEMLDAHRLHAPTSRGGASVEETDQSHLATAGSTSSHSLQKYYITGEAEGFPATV
Quantity name: Activity (%)

a = OCc1c(Cl)c(Cl)c(-c2ccc(O)cc2)c(Cl)c1Cl
b = Cc1cc(CO)cc(C)c1-c1ccc(O)cc1
Input: Which item exceeds the other in Activity, a or b ? Answer by stating the label of the chosen item.
Output: a

###

molecular target: Estrogen receptor (Homo sapiens); experiment: Receptor binding affinity (RBA) to human recombinant estrogen receptor alpha (REH) after 24 hours at 0 degree Centigrade
Quantity name: Activity (%)

>>> recorded_value("Cc1cc(-c2ccc(CO)cc2)cc(C)c1O")
0
>>> recorded_value("OCc1ccc(-c2ccc(O)cc2)c(Cl)c1")
2
>>> recorded_value("OCc1cc(Cl)c(-c2ccc(O)cc2Cl)c(Cl)c1")
21
>>> recorded_value("COc1cc(CO)cc(OC)c1-c1ccc(O)cc1")
0.24
>>> recorded_value("O=[N+]([O-])c1cc(CO)cc([N+](=O)[O-])c1-c1ccc(O)cc1")
5

I = COc1cc(CO)cc(Cl)c1-c1ccc(O)cc1
II = OCc1cc(Br)c(-c2ccc(O)cc2)c(I)c1
III = OCc1cc(Cl)c(-c2ccc(O)c(Cc3ccccc3)c2)c(Cl)c1
IV = OCc1ccc(-c2cc(Br)c(O)c(Br)c2)cc1
Input: Descending sort on Activity required. // respond by listing labels in the order requested
Output: II, I, III, IV
(II: 41%, I: 2.5%, III: 0.07%, IV: 0%)

I = OCc1cc(Cl)c(-c2ccc(O)cc2)c(Cl)c1
II = OCc1cc(Br)c(-c2ccc(O)cc2)c(-n2cccc2)c1
Input: Which item exceeds the other in Activity, I or II ? Answer by stating the label of the chosen item.
Output: I
(I: 34%, II: 2%)

1 = O=[N+]([O-])c1cc(CO)cc(Br)c1-c1ccc(O)cc1
2 = OCc1cc(Cl)c(-c2ccc(O)cc2)c(C(F)(F)F)c1
3 = OCc1ccc(-c2c(Cl)c(Cl)c(O)c(Cl)c2Cl)cc1
4 = OCc1ccc(-c2ccc(O)cc2)c(C(F)(F)F)c1
5 = OCc1cc(F)c(-c2ccc(O)cc2)c(F)c1
Input: Descending sort on Activity required. // respond by listing labels in the order requested
Output: 2, 1, 4, 5, 3
(2: 50%, 1: 34%, 4: 9.5%, 5: 0.93%, 3: 0%)

###

target: Estrogen receptor (Homo sapiens) (UniProt P03372); test: Receptor binding affinity (RBA) to human recombinant estrogen receptor alpha (REH) after 24 hours at 0 degree Centigrade
Quantity name: Activity (%)

>>> recorded_value("OCc1ccc(-c2c(Cl)cc(O)cc2Cl)cc1")
0.4
>>> recorded_value("Nc1cc(CO)cc(Br)c1-c1ccc(O)cc1")
0.03

a = CN(C)C#Cc1cc(CO)cc(Br)c1-c1ccc(O)cc1
b = OCc1ccc(-c2ccc(O)cc2)c(-c2ccc(O)cc2)c1
c = Nc1cc(CO)cc([N+](=O)[O-])c1-c1ccc(O)cc1
d = CSc1cc(CO)cc(Br)c1-c1ccc(O)cc1
Input: Order the entries by their reported Activity, beginning at the minimum. // respond by listing labels in the order requested
Output: c, a, b, d
(c: 0.03%, a: 0.2%, b: 1%, d: 4.5%)
